target: G-protein coupled bile acid receptor 1 (Mus musculus, UniProt Q80SS6); assay: Agonist activity at mouse TGR5 receptor expressed in HEK293 cells cotransfected with pCMV AC6-TGR5 assessed as activation of intracellular cAMP production incubated overnight by luciferase reporter gene assay; type: functional, cell-based; conditions: read-out: EC50
Sequence (Q80SS6 whole entry): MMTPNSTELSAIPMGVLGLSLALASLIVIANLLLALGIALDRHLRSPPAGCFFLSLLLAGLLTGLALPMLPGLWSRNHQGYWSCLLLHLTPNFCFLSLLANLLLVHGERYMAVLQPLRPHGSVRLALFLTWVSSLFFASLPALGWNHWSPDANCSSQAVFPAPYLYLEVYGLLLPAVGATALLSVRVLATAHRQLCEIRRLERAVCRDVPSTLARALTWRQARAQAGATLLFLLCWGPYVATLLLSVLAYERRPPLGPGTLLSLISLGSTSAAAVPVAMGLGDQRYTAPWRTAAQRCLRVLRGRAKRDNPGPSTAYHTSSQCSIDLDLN
The entries below are paired with their reported log10 EC50.
Observable: log10 EC50 (log10 of the value in nM)

[[record]]
molecule = "COCCN1C(=O)CC(c2ccc(Cl)cc2)C(C(=O)OCc2ccccc2OC)=C1C (single isomer, unassigned)"
observable = "log10 EC50"
readout_number = 2.08

[[record]]
molecule = "COCCN1C(=O)CC(c2ccc(Cl)cc2)C(C(=O)OCc2ccc(Cl)cc2)=C1C (stereo unspecified)"
observable = "log10 EC50"
readout_number = 2.60

[[record]]
molecule = "C=C(C)CN1C(=O)CC(c2ccc(Cl)cc2)C(C(=O)OCc2ccccc2)=C1C (stereo unspecified)"
observable = "log10 EC50"
readout_number = 3.04

[[record]]
molecule = "COCCN1C(=O)CC(c2ccc(Cl)cc2)C(C(=O)OCc2ccccc2)=C1C (stereo unspecified)"
observable = "log10 EC50"
readout_number = 2.95

[[record]]
molecule = "CCCCN1C(=O)CC(c2ccc(Cl)cc2)C(C(=O)OCc2ccccc2)=C1C (stereo unspecified)"
observable = "log10 EC50"
readout_number = 2.95

[[record]]
molecule = "COC(=O)CN1C(=O)CC(c2ccc(Cl)cc2)C(C(=O)OCc2ccccc2OC)=C1C (stereo unspecified)"
observable = "log10 EC50"
readout_number = 1.70

